Recorded values, source ChEMBL document CHEMBL3779851.

# Test system: HEK293
# assay_info: Induction of cell proliferation of HEK293 cells assessed as proliferation rate at 100 uM measured up to 72 hrs by MTT assay
# Type: functional
# protocol_conditions: Homo sapiens, HEK293, 72 h; read-out: Activity
For each of the compounds below, state its growth at 100 µM.
Numeric only. Scale: %

Reported growth at 100 µM for HEK293, given COc1ccc(C2=NOC(c3ccc(O)cc3)C2C(=O)c2ccc(O)c(C(=O)O)c2)cc1 (stereo not given) ?
8

Reported growth at 100 µM for HEK293, given O=C(O)c1cc(C(=O)C2C(c3cccc(Cl)c3)=NOC2c2ccc(O)cc2)ccc1O (stereo not given) ?
0

Reported growth at 100 µM for HEK293, given COc1ccc(C2ON=C(c3cccc(Cl)c3)C2C(=O)c2ccc(O)c(C(=O)O)c2)cc1 (stereo not given) ?
9

Reported growth at 100 µM for HEK293, given O=C(O)c1cc(C(=O)C2C(c3ccc(Cl)cc3)=NOC2c2ccc(Cl)cc2)ccc1O (stereo not given) ?
9

Reported growth at 100 µM for HEK293, given COc1ccc(C2=NOC(c3ccccc3)C2C(=O)c2ccc(O)c(C(=O)O)c2)c(OC)c1 (stereo not given) ?
0
